molecular target: HA of ca A/Vietnam/1203/04 (H5N1) virus (influenza A virus); assay: cell-based or functional assay
measurement-label: Neutralization IC50, H5-VM04 (µg/mL)
Report the figure in µg/mL without appending any unit label.

Using the record for Antibody 13 (antibody, V domains shown) VH: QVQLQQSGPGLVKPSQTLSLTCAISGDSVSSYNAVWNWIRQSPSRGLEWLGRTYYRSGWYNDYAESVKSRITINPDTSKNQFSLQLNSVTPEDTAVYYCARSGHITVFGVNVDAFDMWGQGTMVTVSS VL: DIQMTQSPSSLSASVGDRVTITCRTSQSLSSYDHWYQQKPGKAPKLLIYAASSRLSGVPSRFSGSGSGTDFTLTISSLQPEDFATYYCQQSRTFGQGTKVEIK , report its Neutralization IC50, H5-VM04.
0.56
